B1: LCOR (parent)
chain: PCAGSTSLSHSPGCSSTQGNGRPG

variants of: B1; test: protein stability index of a GFP-peptide fusion (GPS, HEK-293T) (PSI 1-6); higher = more stable; settings: c terminus: a fixed tail appended;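 further: lentivirally expressed fusions sorted by FACS into six bins by GFP to DsRed ratio, PSI derived from sequencing read proportions per bin multiplied by bin number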
Param threshold (4) applies to protein stability index; output 1 when value >= threshold, 0 when value < threshold.

| SEQ | ASSIGNED_CATEGORY |
| --- | --- |
| PCAGSTMLSHSPGCSSTQGNGRPG | 0 |
| PCAGSTSLSHSPGCSSTQGNGWPG | 0 |
| PCAGSTSLSHSPGCSSTQGNARPG | 0 |
| PCAGSTSLSHCPGCSSTQGNGRPG | 0 |
| PCAGSTSLSHSPGCSSTQINGRPG | 0 |
| PCAGSTSLSHSPGCSSTQGNGGPG | 0 |
| PCAGSTSLSHSPGCSNTQGNGRPG | 0 |
| PCAGSTSLSHSPGCVSTQGNGRPG | 0 |
| PCAGSTSLSHSQGCSSTQGNGRPG | 0 |
| PCAGSTSLSHSPGCSSTQGNGLPG | 0 |
| PCAGSTSLWHSPGCSSTQGNGRPG | 0 |
| PCAGSDSLSHSPGCSSTQGNGRPG | 1 |
| PCAGSTSLSHSPGCSGTQGNGRPG | 0 |
| PCAGSTSLSHSPGCSSSQGNGRPG | 0 |
| PSAGSTSLSHSPGCSSTQGNGRPG | 0 |
| PCAGSTSLSHSPGCSSMQGNGRPG | 0 |
| PCAGSTWLSHSPGCSSTQGNGRPG | 0 |
| PCAGSTSLSHSPNCSSTQGNGRPG | 0 |
| PCAGSTSLSHSPGCSSTQGNGRPC | 0 |
| PCAGSTSLSHSEGCSSTQGNGRPG | 1 |
| PCAGSTSLSHSPGCSSTQGNGRPN | 0 |
| PCAGSTSLSHSPGCSSTQGNGPPG | 0 |
| PCAGSTSLSHSPGCSSTFGNGRPG | 0 |
| PCAGSTSLSHSPGQSSTQGNGRPG | 1 |
| PCAGSTSLSHSPGPSSTQGNGRPG | 1 |
| PCAGSESLSHSPGCSSTQGNGRPG | 1 |
| PCAGSTSLSHSPGCSSTQGIGRPG | 0 |
| PCAGSTSLSHSPGCSSTQGEGRPG | 0 |
| PCAGSTSLSHAPGCSSTQGNGRPG | 0 |
| PCDGSTSLSHSPGCSSTQGNGRPG | 1 |
| PCAGSTSLSHSPGCSSTVGNGRPG | 0 |
| PCAGSTSLSHSPGCSSTQGNGSPG | 1 |
| PCAGSTSLSHSPGCSSTQGNCRPG | 0 |
| PQAGSTSLSHSPGCSSTQGNGRPG | 1 |
| PNAGSTSLSHSPGCSSTQGNGRPG | 1 |
